Molecular target: pure recombinant PKM2 (Homo sapiens, UniProt P14618)
Construct: PKM2 cDNA in pQE-30, 6xHis tag (removal not mentioned), expressed in E. coli M15 (pREP4), Ni-NTA purified
Sequence (P14618 2-531): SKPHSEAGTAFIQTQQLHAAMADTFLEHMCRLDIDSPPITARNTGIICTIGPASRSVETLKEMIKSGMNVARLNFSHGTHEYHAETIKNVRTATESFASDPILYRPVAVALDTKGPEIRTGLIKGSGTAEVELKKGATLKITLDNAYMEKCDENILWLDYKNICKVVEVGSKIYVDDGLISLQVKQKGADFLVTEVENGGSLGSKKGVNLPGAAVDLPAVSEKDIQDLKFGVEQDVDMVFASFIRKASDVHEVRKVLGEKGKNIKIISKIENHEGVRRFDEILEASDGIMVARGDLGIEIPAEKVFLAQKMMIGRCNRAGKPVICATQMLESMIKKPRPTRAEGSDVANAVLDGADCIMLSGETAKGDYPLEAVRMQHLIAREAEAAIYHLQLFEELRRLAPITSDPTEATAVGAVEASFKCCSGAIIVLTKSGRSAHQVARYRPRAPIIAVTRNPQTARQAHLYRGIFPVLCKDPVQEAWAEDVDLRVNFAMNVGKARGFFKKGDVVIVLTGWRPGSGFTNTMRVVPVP
Experiment: LDH-coupled pyruvate kinase assay, NADH absorbance […] nm
Conditions: 0.2 mM PEP, 2 mM ADP, 5 mM MgCl2, 100 mM KCl, pH 7.4, 37 °C; no FBP; allosteric inhibitor
pIC50: −log10 of the molar value.
Measured Attribute: pIC50

1 = C[C@H](N)C(=O)O
2 = CC(C)[C@H](N)C(=O)O
query: Problem: Given the entries 1 and 2 , determine which has the lower reported pIC50. State the label of the item chosen.
result: 2

P = N[C@@H](Cc1c[nH]c2ccccc12)C(=O)O
Q = N[C@@H](Cc1ccccc1)C(=O)O
query: Compare P and Q by numeric pIC50 and name the larger one. Select an item and report its label.
result: Q
(Q: 4.39, P: 3.60)
